Tested on: T. cruzi amastigotes
procedure.details: Inhibition of T. cruzi amastigote replication in Vero cells (β-galactosidase transfected parasites, CPRG)
Assay type: cell-based, Trypanosoma cruzi
experimental.conditions: Vero CC50 relative to amastigote IC50
observed.property: Selectivity Index Amastigotes T. cruzi
Number only, no unit.

These recorded examples may help you get a feel for the data.
compound="C=C1CCC2C(CC#N)C(=O)OC2C2C1CC1OC12C (centres unmarked)" readout_number=1.3
compound="C=C1C(=O)O[C@@H]2C3C(C[C@H]4O[C@@]34C)C3(CC[C@@H]12)CO3 (some centres unmarked)" readout_number=4.0
compound="C=C1CCC2C(C)C(=O)OC2C2C1CC1OC12C (centres unmarked) [Compound 2, 11βH,13-dihydroestafietin]" readout_number=2.0

Selectivity Index Amastigotes T. cruzi on T. cruzi amastigotes for C=C1CCC2C(COC)C(=O)OC2C2C1CC1OC12C (centres unmarked) is 10.3

Selectivity Index Amastigotes T. cruzi on T. cruzi amastigotes for C=C1CC[C@H]2C(=C)C(=O)O[C@@H]2C2C1C[C@H]1O[C@@]21C (some centres unmarked) is 8.3

* * *

Let's look at some compounds and their measured Selectivity Index Trypomastigotes T. cruzi.
System: T. cruzi bloodstream trypomastigotes
procedure.details: Trypanocidal activity on T. cruzi bloodstream trypomastigotes (counting of living parasites in Neubauer chamber)
Assay type: cell-based, Trypanosoma cruzi
experimental.conditions: Vero CC50 relative to trypomastigote IC50
Number only, no unit.

These recorded examples may help you get a feel for the data.
compound="C=C1C(=O)O[C@@H]2C3C(C[C@H]4O[C@@]34C)C3(CC[C@@H]12)CO3 (some centres unmarked)" readout_number=0.4
compound="C=C1CC[C@H]2C(=C)C(=O)O[C@@H]2C2C1C[C@H]1O[C@@]21C (some centres unmarked)" readout_number=9.5
compound="C=C1CCC2C(COC)C(=O)OC2C2C1CC1OC12C (centres unmarked)" readout_number=3.1
compound="C=C1CCC2C(CC#N)C(=O)OC2C2C1CC1OC12C (centres unmarked)" readout_number=1.7

Now take the following compound into account.
compound C=C1CCC2C(C)C(=O)OC2C2C1CC1OC12C (centres unmarked) [Compound 2, 11βH,13-dihydroestafietin] , Selectivity Index Trypomastigotes T. cruzi observed: 1.7

* * *

Let's look at some compounds and their measured log10 CC50 at 24 h.
procedure.details: Host cell toxicity on Vero cells by the MTT method
Type: cell-based
experimental.conditions: African green monkey, 24 h, 5-500 µg/mL, read-out: CC50 (50% cytotoxic concentration)
Use the decimal logarithm of CC50 at 24 h (µg/mL).

compound="C=C1CC[C@H]2C(=C)C(=O)O[C@@H]2C2C1C[C@H]1O[C@@]21C (some centres unmarked)" observed_property="log10 CC50 at 24 h" readout_number=2.38

compound C=C1CCC2C(COC)C(=O)OC2C2C1CC1OC12C (centres unmarked) , log10 CC50 at 24 h observed: 2.50

compound C=C1C(=O)O[C@@H]2C3C(C[C@H]4O[C@@]34C)C3(CC[C@@H]12)CO3 (some centres unmarked) , log10 CC50 at 24 h observed: 0.91

compound C=C1CCC2C(C)C(=O)OC2C2C1CC1OC12C (centres unmarked) [Compound 2, 11βH,13-dihydroestafietin] , log10 CC50 at 24 h observed: 2.22

compound C=C1CCC2C(CC#N)C(=O)OC2C2C1CC1OC12C (centres unmarked) , log10 CC50 at 24 h observed: 2.13

Each recorded value in this set is attributed to paper PMC6479983.
